Reference source for all entries: PubChem BioAssay AID651605

assayedTarget: Ubiquitin carboxyl-terminal hydrolase 1 (Homo sapiens) (UniProt O94782)
Sequence (O94782 whole entry, looked up): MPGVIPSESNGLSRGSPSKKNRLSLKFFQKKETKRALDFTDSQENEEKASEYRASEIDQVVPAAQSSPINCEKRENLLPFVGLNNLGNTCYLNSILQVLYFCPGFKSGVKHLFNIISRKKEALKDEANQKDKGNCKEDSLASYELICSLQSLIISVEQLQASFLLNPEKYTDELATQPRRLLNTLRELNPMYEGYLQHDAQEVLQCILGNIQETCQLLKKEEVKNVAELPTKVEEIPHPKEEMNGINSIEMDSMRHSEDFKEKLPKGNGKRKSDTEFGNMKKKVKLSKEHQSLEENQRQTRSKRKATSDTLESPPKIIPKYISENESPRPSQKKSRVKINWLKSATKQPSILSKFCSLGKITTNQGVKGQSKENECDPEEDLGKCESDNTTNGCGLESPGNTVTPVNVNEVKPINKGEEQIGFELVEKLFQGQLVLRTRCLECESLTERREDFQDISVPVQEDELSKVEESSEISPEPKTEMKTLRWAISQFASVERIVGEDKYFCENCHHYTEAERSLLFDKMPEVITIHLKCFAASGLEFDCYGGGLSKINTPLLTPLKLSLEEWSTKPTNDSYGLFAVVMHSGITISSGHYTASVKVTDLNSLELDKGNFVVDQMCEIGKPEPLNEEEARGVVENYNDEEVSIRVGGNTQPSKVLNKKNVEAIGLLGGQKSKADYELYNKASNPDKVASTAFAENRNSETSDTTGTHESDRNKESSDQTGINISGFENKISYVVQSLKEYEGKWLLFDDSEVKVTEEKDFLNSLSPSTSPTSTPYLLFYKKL
protocolDescription: Inhibitors of USP1/UAF1: SAR in Primary Assay
measurementContext: Recombinant USP1/UAF1, Ub-Rhodamine cleavage fluorescence; series mostly up to 57.1 µM
Records with an inconclusive call do not appear. Activity calls are given as the source filed them. Calls come from the whole dose curve; as a rule, active = well fitted inhibition curve with a large enough effect; inconclusive = small, poorly fitted or top-dose-only effect; inactive = flat fitted curve, though single readings scatter.
observable: Potency

Brc1ccccc1-c1nc(NCc2ccc(-c3cccnc3)cc2)c2ccccc2n1; 961 nM (active)
CC(C)c1ccccc1-c1nc(NCc2ccc(-c3cccnc3)cc2)c2occc2n1; 152 nM (active)
Cc1ccc(-c2ccc(CNc3nc(-c4ccccc4C(C)C)nc4ccsc34)cc2)cn1; 96.1 nM (active)
FC(F)(F)c1ccc(-c2nc(NCc3ccc(-c4ccnc(C(F)(F)F)c4)cc3)c3ccccc3n2)cc1; inactive
Fc1cnc(-c2ccccc2C(F)F)nc1NCC1CCN(c2cnccn2)C1 (stereo not given); 21500 nM (active)
Fc1ccccc1-c1nc(NCc2ccc(-c3cccnc3)cc2)c2ccccc2n1; 3410 nM (active)
CC(C)c1ccccc1-c1nc(NCc2ccc(-c3cccnc3)cc2)c2sccc2n1; 121 nM (active)
CC(C)c1ccccc1-c1nc2c(c(NCc3ccc(-c4cccnc4)cc3)n1)CNC2; 1520 nM (active)
Cc1cnc(-c2ccccc2C2COC2)nc1NCc1ccc(-n2ccnn2)cc1; inactive
Cc1cnc(-c2ccccc2C(C)C)nc1NCC1CCN(c2cccnc2)C1 (stereo not given); 429 nM (active)

* * *

assayedTarget: Ubiquitin carboxyl-terminal hydrolase 1 (Homo sapiens) (UniProt O94782)
protocolDescription: Inhibitors of USP1/UAF1: SAR in Primary Assay
measurementContext: Recombinant USP1/UAF1, Ub-Rhodamine cleavage fluorescence; series mostly up to 57.1 µM
Results filed as inconclusive are left out. Activity calls are given as the source filed them. The call rests on the fitted dose curve; in most records, active means well fitted inhibition curve with a large enough effect; inconclusive means small, poorly fitted or top-dose-only effect; inactive means flat fitted curve, though single readings scatter.
Overview of recorded Potency for various compounds
observable: Potency

COc1ccccc1-c1nc(NCc2ccc(-c3cccnc3)cc2)c2ccccc2n1; 681 nM (active)
O=[N+]([O-])c1ccccc1-c1nc(NCc2ccc(-c3cccnc3)cc2)c2ccccc2n1; 4290 nM (active)
CC(C)c1ccccc1-c1nc(NCc2ccc(-c3cccnc3)cc2)c2cccn2n1; 215 nM (active)
Cc1cnc(-c2ccccc2C(C)C)nc1NCc1ccc(-c2cn[nH]n2)cc1; 242 nM (active)
Cc1cnc(-c2ccccc2C(C)C)nc1NCC1CCN(C2COC2)CC1; 15200 nM (active)

* * *

assayedTarget: Ubiquitin carboxyl-terminal hydrolase 1 (Homo sapiens)
protocolDescription: Inhibitors of USP1/UAF1: SAR in Primary Assay
measurementContext: Recombinant USP1/UAF1, Ub-Rhodamine cleavage fluorescence; series mostly up to 57.1 µM
Inconclusive results are not listed. Active and inactive are the calls of the source. Calls come from the whole dose curve; as a rule, active = well fitted inhibition curve with a large enough effect; inconclusive = small, poorly fitted or top-dose-only effect; inactive = flat fitted curve, though single readings scatter.
observable: Potency

Cc1cnc(-c2ccccc2C(C)C)nc1NCc1ccc(C#N)cc1; 482 nM (active)
Fc1cnc(-c2ccccc2C(F)F)nc1NCc1ccc(-c2ccn[nH]2)cc1; 1520 nM (active)
CC(C)c1ccccc1-c1ncc(F)c(NC(C)(C)c2ccc(-n3ccnn3)cc2)n1; 4820 nM (active)
COc1cnc(-c2ccccc2C(C)C)nc1NCc1ccc(-c2cccnc2)cc1; 42.9 nM (active)
CC(C)c1ccccc1-c1nc(NCc2ccc(-c3cccnc3)cc2)c2[nH]cnc2n1; 121 nM (active)

* * *

Overview of recorded Potency for various compounds
assayedTarget: Ubiquitin carboxyl-terminal hydrolase 1 (Homo sapiens)
protocolDescription: Inhibitors of USP1/UAF1: SAR in Primary Assay
measurementContext: Recombinant USP1/UAF1, Ub-Rhodamine cleavage fluorescence; series mostly up to 57.1 µM
Records with an inconclusive call do not appear. Activity calls are given as the source filed them. Calls follow the shape of the dose curve; as a rule, active = well fitted inhibition curve with a large enough effect; inconclusive = small, poorly fitted or top-dose-only effect; inactive = flat fitted curve, though single readings scatter.
observable: Potency

Cc1cnc(-c2ccccc2C(C)C)nc1NCc1ccc(C(N)=O)cc1; 4290 nM (active)
CC(C)c1ccccc1-c1nc(NCc2ccc(-c3cccnc3)cc2)c2ccccc2n1; 152 nM (active)
Fc1cnc(-c2ccccc2C(F)F)nc1NCc1ccc(-n2ccnn2)cc1; 1210 nM (active)
CC(C)c1ccccc1-c1nc2c(c(NCc3ccc(-c4cccnc4)cc3)n1)CCNC2; 482 nM (active)
FC(F)(F)c1ccc(-c2ccc(CNc3nc(-c4ccccc4C(F)(F)F)nc4ccccc34)cc2)cn1; 4290 nM (active)
